This section presents compounds with their documented inhibition of growth at 10 µM values.
# EXPERIMENT DESCRIPTION: Cytotoxicity against human OVCAR4 cells assessed as cell growth inhibition at 10 uM after 48 hrs by SRB assay relative to control
# Assay type: functional
# EXPERIMENTAL SETUP: OVCAR-4, 48 h, read-out: GI

Asked: Entry COc1ccc(-c2cccc3c(=O)nc(N4CCOCC4)oc23)cc1 : reported inhibition of growth at 10 µM = ?
Given back: 2.85%

Asked: Entry O=c1nc(N2CCOCC2)oc2c(-c3ccsc3)cccc12 : reported inhibition of growth at 10 µM = ?
Given back: 3.41%

Asked: Entry O=c1nc(N2CCOCC2)oc2ccc(-c3cccc4c3sc3ccccc34)cc12 : reported inhibition of growth at 10 µM = ?
Given back: 2.78%

Asked: Entry O=c1nc(N2CCOCC2)oc2c(-c3cccs3)cccc12 : reported inhibition of growth at 10 µM = ?
Given back: 2.16%

Asked: Entry O=c1nc(N2CCOCC2)oc2c(-c3cccc4c3oc3ccccc34)cccc12 : reported inhibition of growth at 10 µM = ?
Given back: -1.43%

Asked: Entry NC(=O)c1ccc(-c2cccc3c(=O)nc(N4CCOCC4)oc23)cc1 : reported inhibition of growth at 10 µM = ?
Given back: 9.54%

Asked: Entry O=c1nc(N2CCOCC2)oc2c(-c3cccc4c3sc3ccccc34)cccc12 : reported inhibition of growth at 10 µM = ?
Given back: 7.25%

Asked: Entry O=c1nc(N2CCOCC2)oc2c(-c3cccc4ccccc34)cccc12 : reported inhibition of growth at 10 µM = ?
Given back: 2.95%

----------
# EXPERIMENT DESCRIPTION: Cytotoxicity against human SNB75 cells assessed as cell growth inhibition at 10 uM after 48 hrs by SRB assay relative to control
# Type: functional
# EXPERIMENTAL SETUP: SNB-75, 48 h, read-out: GI
Classify by measured inhibition of growth at 10 µM: fulfilled if it is equal to or exceeds 40%, not fulfilled if it is smaller.

Worked cases, answers included:
Asked: Assess whether reported inhibition of growth at 10 µM for O=c1nc(N2CCOCC2)oc2c(-c3cccc4c3oc3ccccc34)cccc12 sits at 40% or higher.
Given back: fulfilled

Asked: Assess whether reported inhibition of growth at 10 µM for O=c1nc(N2CCOCC2)oc2c(-c3cccc4ccccc34)cccc12 sits at 40% or higher.
Given back: fulfilled

Asked: Assess whether reported inhibition of growth at 10 µM for O=c1nc(N2CCOCC2)oc2ccc(-c3cccc4c3sc3ccccc34)cc12 sits at 40% or higher.
Given back: not fulfilled

Asked: Assess whether reported inhibition of growth at 10 µM for O=c1nc(N2CCOCC2)oc2c(-c3cccs3)cccc12 sits at 40% or higher.
Given back: not fulfilled

Asked: Assess whether reported inhibition of growth at 10 µM for COc1ccc(-c2cccc3c(=O)nc(N4CCOCC4)oc23)cc1 sits at 40% or higher.
Given back: not fulfilled

Others:
Asked: Assess whether reported inhibition of growth at 10 µM for O=c1nc(N2CCOCC2)oc2c(-c3ccsc3)cccc12 sits at 40% or higher.
Given back: not fulfilled

Asked: Assess whether reported inhibition of growth at 10 µM for NC(=O)c1ccc(-c2cccc3c(=O)nc(N4CCOCC4)oc23)cc1 sits at 40% or higher.
Given back: not fulfilled

Asked: Assess whether reported inhibition of growth at 10 µM for O=c1nc(N2CCOCC2)oc2c(-c3cccc4c3sc3ccccc34)cccc12 sits at 40% or higher.
Given back: fulfilled
